Assay: Solubility in different solvents
Assay type: physicochemical
Conditions: water with sodium lauryl sulphate 0.5% w/v, aqueous with cosolvent or surfactant or cyclodextrin; Water-Sodium lauryl sulphate (0.5% w/v); read-out: Solubility
experimental_readout: solubility (µg/mL)
The reply should be a number in µg/mL, with the unit left off.

Exercise: Quick one: solubility of CC#C[C@]1(O)CC[C@H]2[C@@H]3CCC4=CC(=O)CCC4=C3[C@@H](c3ccc4c(c3)OCO4)C[C@@]21C ?
Key: 240

====

Test: Solubility in different solvents
Assay type: physicochemical
Conditions: Gelicure 44/14, oil or lipid; read-out: Solubility
experimental_readout: solubility (mg/mL)
The reply should be a number in mg/mL, with the unit left off.

Exercise: Quick one: solubility of CC#C[C@]1(O)CC[C@H]2[C@@H]3CCC4=CC(=O)CCC4=C3[C@@H](c3ccc4c(c3)OCO4)C[C@@]21C ?
Key: 100

Hey, just so you know, these numbers are from patent US10058563B2.
